# Tested on: winter wheat (Vershin variety)
# protocol_summary: Winter wheat seed treatment with BHMPA salts: germinating power (length and mass of roots and sprouts)
# Format: in vivo
# settings: 1·10^−9% solution
quantity: Mass, wet, root

- molecule: "O=P([O-])(CO)CO.[Na+] [Na-salt, Sodium BHMPA Salt]"
  obs_value: "3.21 g/100 plantlings"
- molecule: "O=P([O-])(CO)CO.O=P([O-])(CO)CO.[Ca+2] [Ca-salt, Calcium BHMPA Salt]"
  obs_value: "4.20 g/100 plantlings"
- molecule: "O.O.O=P([O-])(CO)CO.O=P([O-])(CO)CO.[Mn+2] [Mn-salt, Manganese BHMPA Salt]"
  obs_value: "3.00 g/100 plantlings"
- molecule: "O=P([O-])(CO)CO.O=P([O-])(CO)CO.[Zn+2] [Zn-salt, Zinc BHMPA Salt]"
  obs_value: "3.58 g/100 plantlings"
- molecule: "O.O.O=P([O-])(CO)CO.O=P([O-])(CO)CO.[Co+2] [Co-salt, Cobalt BHMPA Salt]"
  obs_value: "3.35 g/100 plantlings"
- molecule: "O=P([O-])(CO)CO.O=P([O-])(CO)CO.[Mg+2] [Mg-salt, Magnesium BHMPA Salt]"
  obs_value: "2.98 g/100 plantlings"
